{"compound": "CCN(CC)S(=O)(=O)c1ccc(-c2cnc3[nH]c(CCc4cc(OC)ccn4)nc3c2)cc1 [compound 2]", "melting point": "127 to 129 °C"}
{"compound": "COc1ccnc(CCc2nc3cc(-c4ccc(S(N)(=O)=O)cc4)cnc3[nH]2)c1 [compound 4]", "melting point": "216 to 218 °C"}
{"compound": "COc1ccnc(CCc2nc3cc(-c4ccc(S(=O)(=O)N(C)C)c(F)c4)cnc3[nH]2)c1 [compound 6]", "melting point": "211 to 212 °C"}
{"compound": "CCNS(=O)(=O)c1ccc(-c2cnc3[nH]c(CCc4cc(OC)ccn4)nc3c2)cc1 [compound 5]", "melting point": "214 to 216 °C"}
{"compound": "COc1ccnc(CCc2nc3cc(-c4ccc(S(=O)(=O)N(C)C)cc4)cnc3[nH]2)c1 [compound 1]", "melting point": "217 to 218 °C"}
{"compound": "CNS(=O)(=O)c1ccc(-c2cnc3[nH]c(CCc4cc(OC)ccn4)nc3c2)cc1 [compound 3]", "melting point": "225 to 227 °C"}
